Below, each entry is listed with its recorded pIC50.
# ASSAY_INFO: Inhibition of Staphylococcus aureus FabH by direct binding assay
Give only the number. pIC50 is defined as minus log10 of concentration in molar units.

C=C1C[C@@]23C=CC(=O)[C@@](C)(CCC(=O)Nc4c(O)ccc(C(=O)O)c4O)[C@@H]2C[C@@H]1CC3 [PLATENCIN]    4.79

With those in mind, consider the next molecule.
Requested field: pIC50. Item: CC12C[C@@]34C=CC(=O)[C@@](C)(CCC(=O)Nc5c(O)ccc(C(=O)O)c5O)C3[C@H](CC1C4)O2 (some centres not stated) [PLATENSIMYCIN]
4.17
